tgt: E. coli DNA gyrase (Escherichia coli, UniProt P0AES4)
Construct: purchased Inspiralis (Norwich, UK)
test: E. coli DNA gyrase supercoiling gel assay
Type: biochemical
runConditions: IC50 E. coli gyrase Supercoiling, Assay 1, replicate Assay 1
Collected IC50 values appear next to each entry.

compound	tgt	censoringOperator	IC50 (nM)
Cl.O=c1oc2ccc(F)cc2c2[nH]c(CN[C@H]3CC[C@H](n4c(=O)ccc5ccc(F)cc54)CC3)cc12 [Compound 6]	E. coli DNA gyrase (Escherichia coli, UniProt P0AES4)	=	130
Cl.O=c1oc2ccc(F)cc2c2[nH]c(CN[C@H]3CC[C@H](n4c(=O)ccc5ncc(F)cc54)CC3)cc12 [Compound 3]	E. coli DNA gyrase (Escherichia coli, UniProt P0AES4)	<	100
Cl.N#Cc1ccc2ccc(=O)n([C@H]3CC[C@H](NCc4cc5c(=O)oc6ccc(F)cc6c5[nH]4)CC3)c2c1 [Compound 2]	E. coli DNA gyrase (Escherichia coli, UniProt P0AES4)	=	40

---

tgt: E. coli Topoisomerase IV (Escherichia coli, UniProt P0AFI2)
Construct: purchased Inspiralis (Norwich, UK)
Sequence (P20083 whole entry): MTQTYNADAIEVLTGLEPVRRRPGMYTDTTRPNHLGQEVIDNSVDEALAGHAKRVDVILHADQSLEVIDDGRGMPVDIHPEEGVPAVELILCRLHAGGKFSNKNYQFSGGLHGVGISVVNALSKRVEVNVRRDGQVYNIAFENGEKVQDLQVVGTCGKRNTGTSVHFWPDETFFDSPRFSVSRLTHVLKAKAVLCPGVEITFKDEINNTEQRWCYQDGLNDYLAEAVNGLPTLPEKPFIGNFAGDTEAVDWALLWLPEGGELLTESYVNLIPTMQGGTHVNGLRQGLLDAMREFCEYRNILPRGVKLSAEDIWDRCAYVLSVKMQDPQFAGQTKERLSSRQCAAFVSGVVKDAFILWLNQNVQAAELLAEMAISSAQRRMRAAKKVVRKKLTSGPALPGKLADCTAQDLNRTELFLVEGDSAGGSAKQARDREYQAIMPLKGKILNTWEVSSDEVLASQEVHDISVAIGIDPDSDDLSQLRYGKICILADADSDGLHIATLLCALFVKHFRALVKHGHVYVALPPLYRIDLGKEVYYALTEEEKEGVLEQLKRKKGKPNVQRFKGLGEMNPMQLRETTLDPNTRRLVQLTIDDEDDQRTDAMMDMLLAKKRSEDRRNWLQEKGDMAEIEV
Sequence (P0AFI2 whole entry): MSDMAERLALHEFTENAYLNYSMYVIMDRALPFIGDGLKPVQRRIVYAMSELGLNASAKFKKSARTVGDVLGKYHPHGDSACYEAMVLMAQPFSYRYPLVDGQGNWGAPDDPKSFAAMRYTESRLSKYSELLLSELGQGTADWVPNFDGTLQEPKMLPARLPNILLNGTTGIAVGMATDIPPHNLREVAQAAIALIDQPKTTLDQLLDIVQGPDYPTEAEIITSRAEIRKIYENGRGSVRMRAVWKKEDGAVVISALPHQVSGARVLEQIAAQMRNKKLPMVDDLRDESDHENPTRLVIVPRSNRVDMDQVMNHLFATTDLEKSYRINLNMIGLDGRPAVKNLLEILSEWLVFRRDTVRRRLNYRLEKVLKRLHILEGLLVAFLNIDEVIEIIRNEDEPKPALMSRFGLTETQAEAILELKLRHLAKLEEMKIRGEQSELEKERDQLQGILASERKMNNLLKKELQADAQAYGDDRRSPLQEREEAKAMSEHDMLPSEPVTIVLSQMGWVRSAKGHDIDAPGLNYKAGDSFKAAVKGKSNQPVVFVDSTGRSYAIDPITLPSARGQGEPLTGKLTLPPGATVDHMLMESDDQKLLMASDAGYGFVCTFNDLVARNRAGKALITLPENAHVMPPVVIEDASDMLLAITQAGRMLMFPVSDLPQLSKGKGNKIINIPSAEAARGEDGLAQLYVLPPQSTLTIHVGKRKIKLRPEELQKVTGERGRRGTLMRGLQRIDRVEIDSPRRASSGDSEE
test: E. coli topoisomerase IV decatenation gel assay
Format: biochemical
runConditions: IC50 E. coli Topoisomerase IV decatenation, Assay 2, replicate Assay 2
pIC50: −log10 of the molar value.
readoutKind: pIC50

chemicalString	censoringOperator	observedResult
Cl.N#Cc1ccc2ccc(=O)n([C@H]3CC[C@H](NCc4cc5c(=O)oc6ccc(F)cc6c5[nH]4)CC3)c2c1	=	6.80
Cl.O=c1oc2ccc(F)cc2c2[nH]c(CN[C@H]3CC[C@H](n4c(=O)ccc5ncc(F)cc54)CC3)cc12	>	7.00
Cl.O=c1oc2ccc(F)cc2c2[nH]c(CN[C@H]3CC[C@H](n4c(=O)ccc5ccc(F)cc54)CC3)cc12	=	6.66

---

E. coli ATCC 25922: reported MIC for various molecules.

chemicalString	tgt	unitOfMeasurement	MIC
O=C1COc2ncc(F)cc2N1[C@H]1CC[C@H](NCc2cc3c(=O)oc4ccc(F)cc4c3[nH]2)CC1	E. coli ATCC 25922	µg/mL	0.5
COc1cnc2ncc(=O)n([C@H]3CC[C@H](NCc4cc5c(=O)oc6ccc(F)cc6c5[nH]4)CC3)c2c1	E. coli ATCC 25922	µg/mL	0.5
Cl.N#Cc1ccc2ccc(=O)n([C@H]3CC[C@H](NCc4cc5c(=O)oc6ccc(F)cc6c5[nH]4)CC3)c2c1	E. coli ATCC 25922	µg/mL	0.5
Cl.O=c1oc2ccc(F)cc2c2[nH]c(CN[C@H]3CC[C@H](n4c(=O)ccc5ncc(F)cc54)CC3)cc12	E. coli ATCC 25922	µg/mL	0.5
Cl.O=c1oc2ccc(F)cc2c2[nH]c(CN[C@H]3CC[C@H](n4c(=O)ccc5ccc(F)cc54)CC3)cc12	E. coli ATCC 25922	µg/mL	0.25
O=c1oc2ccc(F)cc2c2[nH]c(CN[C@H]3CC[C@H](n4c(=O)cnc5ncc(F)cc54)CC3)cc12	E. coli ATCC 25922	µg/mL	0.5

---

Test system: A. baumannii clinical isolates (n = 10)
test: microbe, parasite or virus in culture
Assay type: cell-based, Acinetobacter baumannii
runConditions: Acinetobacter baumannii
Collected MIC90 values appear next to each entry.

molecule	tgt	unitOfMeasurement	censoringOperator	MIC90
Cl.N#Cc1ccc2ccc(=O)n([C@H]3CC[C@H](NCc4cc5c(=O)oc6ccc(F)cc6c5[nH]4)CC3)c2c1	A. baumannii clinical isolates (n = 10)	mg/L	=	0.12
O=C1COc2ncc(F)cc2N1[C@H]1CC[C@H](NCc2cc3c(=O)oc4ccc(F)cc4c3[nH]2)CC1	A. baumannii clinical isolates (n = 10)	mg/L	=	0.12
COc1cnc2ncc(=O)n([C@H]3CC[C@H](NCc4cc5c(=O)oc6ccc(F)cc6c5[nH]4)CC3)c2c1	A. baumannii clinical isolates (n = 10)	mg/L	=	1
O=c1oc2ccc(F)cc2c2[nH]c(CN[C@H]3CC[C@H](n4c(=O)cnc5ncc(F)cc54)CC3)cc12	A. baumannii clinical isolates (n = 10)	mg/L	=	0.5
Cl.O=c1oc2ccc(F)cc2c2[nH]c(CN[C@H]3CC[C@H](n4c(=O)ccc5ncc(F)cc54)CC3)cc12	A. baumannii clinical isolates (n = 10)	mg/L	=	0.12
C[C@@H](O)[C@H]1C(=O)N2C(C(=O)O)=C(S[C@@H]3CN[C@H](C(=O)N(C)C)C3)[C@H](C)[C@H]12 [meropenem, reference compound]	A. baumannii clinical isolates (n = 10)	mg/L	≥	8

---

Test system: E. coli 4SI
test: MIC, broth microdilution
Type: cell-based
runConditions: Escherichia coli, ciprofloxacin-resistant

chemicalString	MIC [µg/mL]
Cl.O=c1oc2ccc(F)cc2c2[nH]c(CN[C@H]3CC[C@H](n4c(=O)ccc5ncc(F)cc54)CC3)cc12	0.12
Cl.N#Cc1ccc2ccc(=O)n([C@H]3CC[C@H](NCc4cc5c(=O)oc6ccc(F)cc6c5[nH]4)CC3)c2c1	0.5
O=c1oc2ccc(F)cc2c2[nH]c(CN[C@H]3CC[C@H](n4c(=O)cnc5ncc(F)cc54)CC3)cc12	0.25
COc1cnc2ncc(=O)n([C@H]3CC[C@H](NCc4cc5c(=O)oc6ccc(F)cc6c5[nH]4)CC3)c2c1	0.5
O=C1COc2ncc(F)cc2N1[C@H]1CC[C@H](NCc2cc3c(=O)oc4ccc(F)cc4c3[nH]2)CC1	0.25

---

tgt: hERG channel (Homo sapiens)
Sequence (Q12809 whole entry): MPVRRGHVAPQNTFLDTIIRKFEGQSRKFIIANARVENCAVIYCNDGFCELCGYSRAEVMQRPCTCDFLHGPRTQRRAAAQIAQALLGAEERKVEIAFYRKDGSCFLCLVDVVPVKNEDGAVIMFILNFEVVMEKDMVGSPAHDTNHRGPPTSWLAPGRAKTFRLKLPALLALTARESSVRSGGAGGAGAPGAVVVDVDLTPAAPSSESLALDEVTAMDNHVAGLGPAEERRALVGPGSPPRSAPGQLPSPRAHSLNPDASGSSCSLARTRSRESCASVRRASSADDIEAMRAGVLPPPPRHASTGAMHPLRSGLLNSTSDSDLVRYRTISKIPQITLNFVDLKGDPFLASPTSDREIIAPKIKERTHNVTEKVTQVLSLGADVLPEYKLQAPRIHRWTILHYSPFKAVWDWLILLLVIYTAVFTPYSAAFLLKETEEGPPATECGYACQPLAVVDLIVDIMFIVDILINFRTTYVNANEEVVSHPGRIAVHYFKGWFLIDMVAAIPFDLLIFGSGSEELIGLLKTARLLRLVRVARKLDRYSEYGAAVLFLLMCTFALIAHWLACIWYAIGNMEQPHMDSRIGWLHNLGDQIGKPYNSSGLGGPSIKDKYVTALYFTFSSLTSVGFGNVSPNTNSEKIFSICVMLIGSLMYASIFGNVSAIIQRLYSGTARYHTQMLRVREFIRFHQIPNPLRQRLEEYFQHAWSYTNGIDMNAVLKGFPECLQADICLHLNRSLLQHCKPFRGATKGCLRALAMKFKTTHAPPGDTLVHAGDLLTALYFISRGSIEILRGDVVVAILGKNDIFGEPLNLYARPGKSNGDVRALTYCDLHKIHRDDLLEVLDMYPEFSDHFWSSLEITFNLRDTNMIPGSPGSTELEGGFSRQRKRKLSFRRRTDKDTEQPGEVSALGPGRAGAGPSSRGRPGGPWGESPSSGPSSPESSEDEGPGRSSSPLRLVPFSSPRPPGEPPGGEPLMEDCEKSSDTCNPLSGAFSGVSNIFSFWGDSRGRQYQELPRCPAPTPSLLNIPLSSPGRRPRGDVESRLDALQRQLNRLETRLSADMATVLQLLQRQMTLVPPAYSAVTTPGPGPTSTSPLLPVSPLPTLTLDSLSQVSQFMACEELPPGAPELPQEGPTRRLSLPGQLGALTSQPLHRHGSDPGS
test: hERG automated patch clamp assay
runConditions: CHO-K1, read-out: IC50 against hERG channels
pIC50: −log10 of the molar value.
Collected pIC50 values appear next to each entry.

chemicalString	tgt	censoringOperator	pIC50
Cl.N#Cc1ccc2ccc(=O)n([C@H]3CC[C@H](NCc4cc5c(=O)oc6ccc(F)cc6c5[nH]4)CC3)c2c1	hERG channel (Homo sapiens)	<	4.00
O=C1COc2ncc(F)cc2N1[C@H]1CC[C@H](NCc2cc3c(=O)oc4ccc(F)cc4c3[nH]2)CC1	hERG channel (Homo sapiens)	=	5.05

---

Collected pIC50 values appear next to each entry.
tgt: E. coli Topoisomerase IV (Escherichia coli)
Construct: purchased Inspiralis (Norwich, UK)
test: E. coli topoisomerase IV decatenation gel assay
Type: biochemical
runConditions: IC50 E. coli Topoisomerase IV decatenation, Assay 1, replicate Assay 1
pIC50: −log10 of the molar value.

molecule	tgt	censoringOperator	pIC50
Cl.O=c1oc2ccc(F)cc2c2[nH]c(CN[C@H]3CC[C@H](n4c(=O)ccc5ncc(F)cc54)CC3)cc12 [Compound 3]	E. coli Topoisomerase IV (Escherichia coli)	>	7.00
Cl.N#Cc1ccc2ccc(=O)n([C@H]3CC[C@H](NCc4cc5c(=O)oc6ccc(F)cc6c5[nH]4)CC3)c2c1 [Compound 2]	E. coli Topoisomerase IV (Escherichia coli)	=	7.00
Cl.O=c1oc2ccc(F)cc2c2[nH]c(CN[C@H]3CC[C@H](n4c(=O)ccc5ccc(F)cc54)CC3)cc12 [Compound 6]	E. coli Topoisomerase IV (Escherichia coli)	=	6.57

---

Test system: E. faecium clinical isolates (n = 12) vanA (6)/vanB (6)
test: MIC, multidrug-resistant clinical isolates
Type: cell-based
runConditions: Enterococcus faecium, read-out: MIC range
Where a name gives a salt, the structure may show the parent alone.

compound	tgt	MIC
CC1(C)S[C@@H]2[C@H](NC(=O)Cc3ccccc3)C(=O)N2[C@H]1C(=O)O [penicillin, penicillin G potassium, reference compound]	E. faecium clinical isolates (n = 12) vanA (6)/vanB (6)	> 64 µg/mL
COc1cnc2ncc(=O)n([C@H]3CC[C@H](NCc4cc5c(=O)oc6ccc(F)cc6c5[nH]4)CC3)c2c1	E. faecium clinical isolates (n = 12) vanA (6)/vanB (6)	0.25 to 8 µg/mL
Cl.N#Cc1ccc2ccc(=O)n([C@H]3CC[C@H](NCc4cc5c(=O)oc6ccc(F)cc6c5[nH]4)CC3)c2c1	E. faecium clinical isolates (n = 12) vanA (6)/vanB (6)	0.06 to 1 µg/mL
CC(=O)NC[C@H]1CN(c2ccc(N3CCOCC3)c(F)c2)C(=O)O1 [linezolid, reference compound]	E. faecium clinical isolates (n = 12) vanA (6)/vanB (6)	2 µg/mL
O=C1COc2ncc(F)cc2N1[C@H]1CC[C@H](NCc2cc3c(=O)oc4ccc(F)cc4c3[nH]2)CC1	E. faecium clinical isolates (n = 12) vanA (6)/vanB (6)	0.03 to 16 µg/mL
CC1(C)S[C@@H]2[C@H](NC(=O)[C@H](N)c3ccccc3)C(=O)N2[C@H]1C(=O)O [ampicillin, reference compound]	E. faecium clinical isolates (n = 12) vanA (6)/vanB (6)	> 64 µg/mL
Cl.O=c1oc2ccc(F)cc2c2[nH]c(CN[C@H]3CC[C@H](n4c(=O)ccc5ccc(F)cc54)CC3)cc12	E. faecium clinical isolates (n = 12) vanA (6)/vanB (6)	0.06 to 1 µg/mL
O=c1oc2ccc(F)cc2c2[nH]c(CN[C@H]3CC[C@H](n4c(=O)cnc5ncc(F)cc54)CC3)cc12	E. faecium clinical isolates (n = 12) vanA (6)/vanB (6)	0.25 to 8 µg/mL
CN[C@H](CC(C)C)C(=O)N[C@H]1C(=O)N[C@@H](CC(N)=O)C(=O)N[C@H]2C(=O)N[C@H]3C(=O)N[C@H](C(=O)N[C@H](C(=O)O)c4cc(O)cc(O)c4-c4cc3ccc4O)[C@H](O)c3ccc(c(Cl)c3)Oc3cc2cc(c3O[C@@H]2O[C@H](CO)[C@@H](O)[C@H](O)[C@H]2O[C@H]2C[C@](C)(N)[C@H](O)[C@H](C)O2)Oc2ccc(cc2Cl)[C@H]1O [vancomycin, vancomycin hydrochloride, reference compound]	E. faecium clinical isolates (n = 12) vanA (6)/vanB (6)	> 64 µg/mL
Cl.O=c1oc2ccc(F)cc2c2[nH]c(CN[C@H]3CC[C@H](n4c(=O)ccc5ncc(F)cc54)CC3)cc12	E. faecium clinical isolates (n = 12) vanA (6)/vanB (6)	0.06 to 2 µg/mL
CCCCCCCCCC(=O)N[C@@H](Cc1c[nH]c2ccccc12)C(=O)N[C@H](CC(N)=O)C(=O)N[C@@H](CC(=O)O)C(=O)N[C@@H]1C(=O)NCC(=O)N[C@@H](CCCN)C(=O)N[C@@H](CC(=O)O)C(=O)N[C@H](C)C(=O)N[C@@H](CC(=O)O)C(=O)NCC(=O)N[C@H](CO)C(=O)N[C@@H]([C@H](C)CC(=O)O)C(=O)N[C@@H](CC(=O)c2ccccc2N)C(=O)O[C@@H]1C [daptomycin, reference compound]	E. faecium clinical isolates (n = 12) vanA (6)/vanB (6)	2 to 4 µg/mL
